- Test system: Pseudomonas aeruginosa
- Experiment: Compound was tested for its minimal inhibitory constant against Gram-negative microorganism Pseudomonas aeruginosa IFO 3445 (Pa(I))
- Format: functional
Recorded MIC by entry
Assay readout: MIC (µg/mL)

>>> reported_result("COC[C@@H]1CN(c2c(F)cc3c(=O)c(C(=O)O)c4scc5n4c3c2N(C)C5)CCO1")
3.13
>>> reported_result("CC1CN(c2c(F)cc3c(=O)c(C(=O)O)c4scc5n4c3c2N(C)C5)CCO1 (centres undefined)")
0.78
>>> reported_result("CN1Cc2csc3c(C(=O)O)c(=O)c4cc(F)c(N5CCOCC5)c1c4n23")
0.39
>>> reported_result("COC[C@H]1CN(c2c(F)cc3c(=O)c(C(=O)O)c4scc5n4c3c2N(C)C5)CCO1")
3.13
>>> reported_result("CNCC1CN(c2c(F)cc3c(=O)c(C(=O)O)c4scc5n4c3c2N(C)C5)CCO1 (centres undefined)")
3.13
>>> reported_result("CN1Cc2csc3c(C(=O)O)c(=O)c4cc(F)c(N5CCOC(CO)C5)c1c4n23 (centres undefined)")
1.56
>>> reported_result("CN1Cc2csc3c(C(=O)O)c(=O)c4cc(F)c(N5CCOC(CF)C5)c1c4n23 (centres undefined)")
0.78
>>> reported_result("CN1Cc2csc3c(C(=O)O)c(=O)c4cc(F)c(N5CCOC(CCl)C5)c1c4n23 (centres undefined)")
1.56
>>> reported_result("COCC1CN(c2c(F)cc3c(=O)c(C(=O)O)c4scc5n4c3c2N(C)C5)CCO1 (centres undefined)")
3.13

====

Recorded MIC by entry
- Tested on: Pseudomonas aeruginosa
- Experiment: Compound was tested for its minimal inhibitory constant against Gram-negative microorganism Pseudomonas aeruginosa IFO 3445 (Pa(I))
- Assay type: functional
Assay readout: MIC (µg/mL)

>>> reported_result("CN(C)CC1CN(c2c(F)cc3c(=O)c(C(=O)O)c4scc5n4c3c2N(C)C5)CCO1 (stereo not drawn)")
6.25
>>> reported_result("CCC1CN(c2c(F)cc3c(=O)c(C(=O)O)c4scc5n4c3c2N(C)C5)CCO1 (stereo not drawn)")
3.13
>>> reported_result("CC1CN(c2c(F)cc3c(=O)c(C(=O)O)c4scc5n4c3c2N(C)C5)CC(C)O1 (stereo not drawn)")
3.13

====

- System: Mus musculus
- Experiment: Compound was tested for oral efficacy on systemic infections on mice by peroral administration
- Assay type: functional
hey, just use Yes if measured ED50 is less than 4 mg/kg, otherwise No

>>> class_assignment("CN1Cc2csc3c(C(=O)O)c(=O)c4cc(F)c(N5CCOC(CF)C5)c1c4n23 (centres undefined)")
"Yes"
>>> class_assignment("CC1COc2c(N3CCN(C)CC3)c(F)cc3c(=O)c(C(=O)O)cn1c23 (centres undefined)")
"No"
>>> class_assignment("CN1Cc2csc3c(C(=O)O)c(=O)c4cc(F)c(N5CCOCC5)c1c4n23")
"No"
>>> class_assignment("CN1Cc2csc3c(C(=O)O)c(=O)c4cc(F)c(N5CCOC(CO)C5)c1c4n23 (centres undefined)")
"No"
>>> class_assignment("CN(C)CC1CN(c2c(F)cc3c(=O)c(C(=O)O)c4scc5n4c3c2N(C)C5)CCO1 (centres undefined)")
"No"
>>> class_assignment("CCC1CN(c2c(F)cc3c(=O)c(C(=O)O)c4scc5n4c3c2N(C)C5)CCO1 (centres undefined)")
"No"
>>> class_assignment("COCC1CN(c2c(F)cc3c(=O)c(C(=O)O)c4scc5n4c3c2N(C)C5)CCO1 (centres undefined)")
"Yes"
>>> class_assignment("CC1CN(c2c(F)cc3c(=O)c(C(=O)O)c4scc5n4c3c2N(C)C5)CCO1 (centres undefined)")
"Yes"
>>> class_assignment("CC1CN(c2c(F)cc3c(=O)c(C(=O)O)c4scc5n4c3c2N(C)C5)CC(C)O1 (centres undefined)")
"No"
